# pIC50 per entry
Test system: HCT-116
assay-explanation: Cytotoxicity against human HCT116 cells by MTT assay
Assay type: functional, cell-based
pIC50: −log10 of the molar value.

As a guide, the following entries are already answered.
| compound | pIC50 |
| --- | --- |
| CC1(C)CC[C@]2(C(=O)O[C@@H]3O[C@H](CO)[C@@H](O)[C@H](O)[C@H]3O)CC[C@]3(C)C(=CC[C@@H]4[C@@]5(C)CC[C@H](O[C@@H]6O[C@H](C(=O)O)[C@@H](O)[C@H](O[C@@H]7O[C@H](CO)[C@@H](O)[C@H](O)[C@H]7O)[C@H]6O)C(C)(C)[C@@H]5CC[C@]43C)[C@@H]2C1 | < 4.00 |
| COC(=O)[C@H]1O[C@@H](O[C@H]2CC[C@]3(C)[C@H]4CC=C5[C@@H]6CC(C)(C)CC[C@]6(C(=O)O[C@@H]6O[C@H](CO)[C@@H](O)[C@H](O)[C@H]6O)CC[C@@]5(C)[C@]4(C)CC[C@H]3C2(C)C)[C@H](O)[C@@H](O)[C@@H]1O[C@H]1O[C@@H](CO)[C@H](O)[C@H]1O [ARALOSIDE A METHYL ESTER] | < 4.00 |

Here is another compound to look at.
Noted for CC1(C)CC[C@]2(C(=O)O[C@@H]3O[C@H](CO)[C@@H](O)[C@H](O)[C@H]3O)CC[C@]3(C)C(=CC[C@@H]4[C@@]5(C)CC[C@H](O[C@@H]6O[C@H](C(=O)O)[C@@H](O)[C@H](O)[C@H]6O[C@H]6OC[C@@H](O)[C@H](O)[C@H]6O)C(C)(C)[C@@H]5CC[C@]43C)[C@@H]2C1 [PSEUDOGINSENOSIDE RT1] : its pIC50 reads < 4.00

Every entry's value here was drawn from ChEMBL document CHEMBL1287676.
